molecular target: T1, cynomolgus monkey CTLA-4 ECD-6×His (cynomolgus monkey); experiment: SPR, antibody captured on anti-human Fc, CTLA-4.ECD-6×His as analyte, 1:1 fit
T1 construct: extracellular domain; Bought; also called cynomoguls monkey CTLA-4.ECD-6×His
quantity: Kd (nM)
Quick reminder: number only, in nM, skip the unit.

Guide cases for Kd, answers given:
[[record]]
binder = "W3162-1.146.19 xAb.IgG1 (antibody, V domains shown, Chimeric: rat variable regions fused with constant region of human antibody (label xAb.IgG1)) VH: EVQLQESGPGLVKPSQSLSLTCSVTYHTITSGYDWTWIRKFPGNQMEWMGYISYSGNTNYNPSLKSRISITRDTSKNQFFLHLNSVTSEDTATYYCASMMVPHYYVMDAWGQGASVTVSS VL: DVVLTQTPPTSSATIGQSVSISCRSSQSLLNSDGNTYLYWYLQRPSQSPQLLIYLVSKLGSGVPNRFSGSGSGTDFTLKISGVEAEDLGLYYCVQGTHDPWTFGGGTKLELK"
unit_name = "nM"
assay_result = 0.369

[[record]]
binder = "W3162_1.154.8-z35-uAb.IgG1K (antibody, V domains shown, Humanized; label says IgG1K) VH: QVQLVQSGAEVKKPGSSVKVSCKASGYTFTNYFMNWVRQAPGQGLEWMGRVDPEQGRADYAEKFKKRVTITADKSTSTAYMELSSLRSEDTAVYYCARRAMDNYGFAYWGQGTLVTVSS VL: EIVLTQSPDFQSVTPKEKVTITCSANSALSYMYWYQQKPDQSPKLWVHGTSNLASGVPSRFSGSGSGTDFTLTINSLEAEDAATYYCHHWSNTQWTFGGGTKVEIK"
unit_name = "nM"
assay_result = 0.131

[[record]]
binder = "W3162-1.146.19-z12-uAb.IgG1K (antibody, V domains shown, Humanized; label says IgG1K) VH: QVQLQESGPGLVKPSETLSLTCSVTYHTITSGYDWTWIRKPPGKGMEWIGYISYSGNTNYNPSLKSRVTISRDTSKNQFFLKLSSVTAADTAVYYCASMMVPHYYVMDAWGQGTLVTVSS VL: DIVMTQTPLSLSVTPGQPASISCRSSQSLLNSDGNTYLYWYLQKPGQSPQLLIYLVSKLGSGVPNRFSGSGSGTDFTLKISRVEAEDVGVYYCVQGTHDPWTFGGGTKVEIK"
unit_name = "nM"
assay_result = 1.92


// below: Kd requested for another binder
Exercise: Item W3162-1.145.10 xAb.IgG1 (antibody, V domains shown, Chimeric: rat variable regions fused with constant region of human antibody (label xAb.IgG1)) VH: EVQLVESGGGLVQPGRSLKLSCAASDLTFSNYDMAWVRQTPTKGLEWVASISPNGGNTYYRDSVKGRFTVSRDNAKNSLYLQMDSLRSEDTATYYCARHLWFAYWGQGTLVTVSS VL: DIQMTQSPSSMSASLGDRVTISCQASQDIGSNLIWFQQKPGKSPRPMIYYATHLADGVPSRFSGSRSGSDYSLTISSLESEDVADYHCLQYKQYPRTFGGGTKLELK has what recorded Kd?
Key: 0.355
